These measurements were taken from patent US20260028336A1.

test system: Jurkat cells; assay: IL-2 secretion assay in CD3/CD28-activated Jurkat cells (AlphaLISA); type: cell-based; settings: Homo sapiens, CD3/CD28 T Cell Activator, 24 h, IL-2 AlphaLISA
METRIC: EC50

- C[C@H]1CCCN(Cc2cc3c(C4CC4)cn(-c4cccc([C@]5(c6nncn6C(F)F)C[C@H](F)C5)c4)c(=O)c3[nH]2)C1: < 0.1 µM
- C[C@H]1CCCN(Cc2cc3c(C4CC4)cn(-c4cccc(C(F)(F)c5nncn5C)c4)c(=O)c3[nH]2)C1: 0.1 to 1 µM
- CC1CC(c2cccc(-n3cc(C4CC4)c4c(-c5cnn(C)c5)c[nH]c4c3=O)c2)(c2nncn2C)C1 (mixture of isomers): > 5 µM
- Cn1cnnc1[C@]1(c2cccc(-n3cc(CO)c4cn[nH]c4c3=O)c2)C[C@H](C)C1: > 5 µM
- Cn1cnnc1C1(c2cccc(-n3cc(C(F)(F)F)c4c(C#N)c[nH]c4c3=O)c2)CC2(CC2)C1: 1 to 5 µM

(Q) So what does the record say about EC50 for CC1CC(c2cccc(-n3cc(C4CC4)c4cc(CN[C@@H]5COC[C@@H]5O)[nH]c4c3=O)c2)(c2nncn2C)C1 (stereo partly shown) ?
(A) 0.1 to 1 µM

(Q) So what does the record say about EC50 for CC1CC(c2cccc(-n3cc(C4CC4)c4cc(CN5CC(F)(F)C5)[nH]c4c3=O)c2)(c2nncn2C)C1 (stereo not shown) ?
(A) 0.1 to 1 µM

(Q) So what does the record say about EC50 for "C[C@H]1CCCN(Cc2cc3c(C4CC4)cn(-c4cccc([C@]5(c6nccn6C)C[C@H](OC(F)F)C5)c4)c(=O)c3[nH]2)C1" ?
(A) 0.1 to 1 µM

(Q) So what does the record say about EC50 for "Cn1cnnc1C1(c2cccc(-n3cc(C4CC4)c4cc(CN5CC[C@@H](F)[C@H](O)C5)[nH]c4c3=O)c2)CC(F)(F)C1" ?
(A) 1 to 5 µM
